The reported numbers originate from the supplement of paper PMC7595190.

Measured CellTox Green cytotoxicity fluorescence of individual entries
# Tested on: MV4-11
# test details: CellTox Green cytotoxicity fluorescence relative to DMSO vehicle (fold of vehicle RFU); higher = more cell death (loss of membrane integrity), active = 2 or more
# condition summary: 0.01 µM; 72 h
assay endpoint: CellTox Green cytotoxicity fluorescence

{"mol smiles": "CCOc1cc(C(C)(C)C)ccc1C1=N[C@@](C)(c2ccc(Cl)cc2)[C@@](C)(c2ccc(Cl)cc2)N1C(=O)N1CCN(CCCS(C)(=O)=O)CC1", "endpoint value": 1.01}
{"mol smiles": "CNC(=O)c1ccc(Nc2ncc(C(F)(F)F)c(NCc3nccnc3N(C)S(C)(=O)=O)n2)cc1", "endpoint value": 0.952}
{"mol smiles": "Cn1cc(-c2ccc3c(c2)CCN3C(=O)Cc2cccc(C(F)(F)F)c2)c2c(N)ncnc21", "endpoint value": 0.979}
{"mol smiles": "COc1cc(C(=O)N2CCC(N3CCN(C)CC3)CC2)ccc1Nc1ncc2c(n1)N(C)c1ccccc1C(=O)N2C", "endpoint value": 1.02}
